The origin of these recorded values is patent US10934277B2.

# assay.method.text: Approximate solubility of SRR G-1 Form A in solvents
# Type: physicochemical
# particulars: water
value.kind: solubility

Supply solubility value. Item: CC(=O)c1ccc2c(c1)[C@@H]1C=CC[C@@H]1[C@H](c1cc3c(cc1Br)OCO3)N2 [SRR G-1 Form A]
< 2000 µg/mL

====

# assay.method.text: Kinetic solubility measurement in bio-relevant media
# Assay type: physicochemical
# particulars: thermodynamic from solid; FaSSIF (pH 6.5); 37° C.; 4 h
value.kind: solubility at 4 h
State the value, then name its unit.

Supply solubility at 4 h value. Item: CC(=O)c1ccc2c(c1)[C@@H]1C=CC[C@@H]1[C@H](c1cc3c(cc1Br)OCO3)N2 [SRR G-1 Form A]
7.1 µg/mL

====

# assay.method.text: Plasma concentration of SRR G-1 in rats after oral dosing (LC-MS/MS)
# Type: in vivo
# particulars: male, rat, plasma, po, 10 mg/kg, time 24.0 h, individual animals (R1-R9), LLOQ 0.100 ng/mL, read-out: Plasma Conc.
value.kind: concentration at 24 h (ng/mL)
One number for each entry, in ng/mL.

Supply concentration at 24 h value. Item: CC(=O)c1ccc2c(c1)[C@@H]1C=CC[C@@H]1[C@H](c1cc3c(cc1Br)OCO3)N2 (single isomer, unassigned)
0.127

====

# measured.on: OCT2 (Homo sapiens, UniProt O15244)
# Sequence (O15244 whole entry): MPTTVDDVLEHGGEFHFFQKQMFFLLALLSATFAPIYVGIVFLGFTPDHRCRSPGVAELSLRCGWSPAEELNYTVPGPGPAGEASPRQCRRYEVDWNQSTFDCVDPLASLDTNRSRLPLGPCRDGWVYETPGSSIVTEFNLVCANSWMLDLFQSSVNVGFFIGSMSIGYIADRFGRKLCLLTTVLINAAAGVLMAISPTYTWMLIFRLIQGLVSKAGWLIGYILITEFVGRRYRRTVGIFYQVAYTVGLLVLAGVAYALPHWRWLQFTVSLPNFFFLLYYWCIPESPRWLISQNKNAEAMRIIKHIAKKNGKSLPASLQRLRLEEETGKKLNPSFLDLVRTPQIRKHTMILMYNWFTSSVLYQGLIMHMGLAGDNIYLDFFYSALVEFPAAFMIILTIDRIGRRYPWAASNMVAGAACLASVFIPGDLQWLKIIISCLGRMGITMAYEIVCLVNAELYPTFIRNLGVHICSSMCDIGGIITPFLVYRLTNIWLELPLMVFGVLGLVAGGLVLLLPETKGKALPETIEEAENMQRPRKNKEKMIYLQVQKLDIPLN
# assay.method.text: Drug transporter fluorometric inhibition, OCT2
# Format: in vitro ADME
value.kind: inhibition at 10 µM (%)
Answers are plain numbers, in %.

Consider the molecule CC(=O)c1ccc2c(c1)[C@H]1C=CC[C@H]1[C@@H](c1cc3c(cc1Br)OCO3)N2 [RSS G-1] tested on OCT2 (Homo sapiens, UniProt O15244); state its inhibition at 10 µM.
53.2

====

# measured.on: ADRA2A (Homo sapiens, UniProt P08913)
# Sequence (P08913 1-465): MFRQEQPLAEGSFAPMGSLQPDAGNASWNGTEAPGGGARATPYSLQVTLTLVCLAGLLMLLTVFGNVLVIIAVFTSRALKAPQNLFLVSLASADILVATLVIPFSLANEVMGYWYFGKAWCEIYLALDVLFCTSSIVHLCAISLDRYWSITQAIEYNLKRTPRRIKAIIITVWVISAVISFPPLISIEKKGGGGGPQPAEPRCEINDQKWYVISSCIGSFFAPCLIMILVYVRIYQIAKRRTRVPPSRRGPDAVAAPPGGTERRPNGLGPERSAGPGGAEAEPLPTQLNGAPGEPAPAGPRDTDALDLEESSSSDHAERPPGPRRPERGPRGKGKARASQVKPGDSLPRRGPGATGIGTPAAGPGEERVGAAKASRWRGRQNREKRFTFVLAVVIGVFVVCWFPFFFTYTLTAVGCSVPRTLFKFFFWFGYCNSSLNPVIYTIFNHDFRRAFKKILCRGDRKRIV
# assay.method.text: Off target selectivity assay, ADRA2A
# particulars: dose response, concentrations up to 10 μM; read-out: IC50 or EC50 on ADRA2A
value.kind: pIC50
Give bare numbers, as −log10 of the molar value.

Supply pIC50 value. Item: "CC(=O)c1ccc2c(c1)[C@H]1C=CC[C@H]1[C@@H](c1cc3c(cc1Br)OCO3)N2"
5.68

====

# assay.method.text: Solubility measurement in pH buffers
# Format: physicochemical
# particulars: aqueous buffer, thermodynamic from solid; pH 4.0 buffer; 37° C.; 24 hrs; read-out: Solubility
value.kind: solubility at 24 h

Supply solubility at 24 h value. Item: CC(=O)c1ccc2c(c1)[C@@H]1C=CC[C@@H]1[C@H](c1cc3c(cc1Br)OCO3)N2 [SRR G-1 Form A]
< 0.72 µg/mL

====

# assay.method.text: Kinetic solubility measurement in bio-relevant media
# Type: physicochemical
# particulars: thermodynamic from solid; FaSSIF (pH 6.5); 37° C.; 2 h
value.kind: solubility at 2 h (µg/mL)
Give bare numbers, in µg/mL.

Supply solubility at 2 h value. Item: CC(=O)c1ccc2c(c1)[C@@H]1C=CC[C@@H]1[C@H](c1cc3c(cc1Br)OCO3)N2 [SRR G-1 Form A]
6.8

====

# assay.method.text: Kinetic solubility measurement in bio-relevant media
# Assay type: physicochemical
# particulars: thermodynamic from solid; FeSSIF (pH 5.0); 37° C.; 4 h
value.kind: solubility at 4 h (µg/mL)
One number for each entry, in µg/mL.

Supply solubility at 4 h value. Item: CC(=O)c1ccc2c(c1)[C@@H]1C=CC[C@@H]1[C@H](c1cc3c(cc1Br)OCO3)N2 [SRR G-1 Form A]
38

====

# measured.on: OPRM1 (Homo sapiens, UniProt P35372)
# Sequence (P35372 whole entry): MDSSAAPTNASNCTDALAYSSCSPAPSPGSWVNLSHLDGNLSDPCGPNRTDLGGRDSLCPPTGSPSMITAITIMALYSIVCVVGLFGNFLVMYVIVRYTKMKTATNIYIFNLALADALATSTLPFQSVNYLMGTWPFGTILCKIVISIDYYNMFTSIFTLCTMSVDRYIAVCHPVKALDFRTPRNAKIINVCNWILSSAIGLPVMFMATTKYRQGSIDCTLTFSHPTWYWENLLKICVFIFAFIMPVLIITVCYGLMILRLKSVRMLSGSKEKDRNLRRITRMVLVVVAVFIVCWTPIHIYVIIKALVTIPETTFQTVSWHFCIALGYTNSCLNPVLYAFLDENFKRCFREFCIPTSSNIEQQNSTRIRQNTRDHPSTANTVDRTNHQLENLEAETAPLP
# assay.method.text: Off target selectivity assay, OPRM1
# particulars: dose response, concentrations up to 10 μM; read-out: IC50 or EC50 on OPRM1
value.kind: pIC50
Numbers only, as −log10 of the molar value.

Supply pIC50 value. Item: CC(=O)c1ccc2c(c1)[C@@H]1C=CC[C@@H]1[C@H](c1cc3c(cc1Br)OCO3)N2 (single isomer, unassigned)
5.18

====

# measured.on: OPRD1 (Homo sapiens)
# Sequence (P41143 whole entry): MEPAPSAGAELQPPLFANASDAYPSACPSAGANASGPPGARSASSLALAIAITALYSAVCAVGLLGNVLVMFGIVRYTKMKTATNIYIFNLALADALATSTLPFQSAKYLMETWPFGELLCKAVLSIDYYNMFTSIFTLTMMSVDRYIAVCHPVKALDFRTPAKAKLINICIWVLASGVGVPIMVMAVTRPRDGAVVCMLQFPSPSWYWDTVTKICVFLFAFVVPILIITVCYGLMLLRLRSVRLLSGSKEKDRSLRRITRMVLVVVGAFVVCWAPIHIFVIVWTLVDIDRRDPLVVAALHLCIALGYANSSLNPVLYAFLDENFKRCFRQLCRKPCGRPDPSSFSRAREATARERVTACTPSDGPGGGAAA
# assay.method.text: Off target selectivity assay, OPRD1
# particulars: dose response, concentrations up to 10 μM; read-out: IC50 or EC50 on OPRD1
value.kind: IC50

Supply IC50 value. Item: CC(=O)c1ccc2c(c1)[C@@H]1C=CC[C@@H]1[C@H](c1cc3c(cc1Br)OCO3)N2 (single isomer, unassigned)
0.87 µM

====

# assay.method.text: Kinetic solubility measurement in bio-relevant media
# Assay type: physicochemical
# particulars: thermodynamic from solid; FaSSIF (pH 6.5); 37° C.; 24 h
value.kind: solubility at 24 h (µg/mL)
Answers are plain numbers, in µg/mL.

Supply solubility at 24 h value. Item: CC(=O)c1ccc2c(c1)[C@@H]1C=CC[C@@H]1[C@H](c1cc3c(cc1Br)OCO3)N2 [SRR G-1 Form A]
7.3

====

# assay.method.text: Approximate solubility of SRR G-1 Form A in solvents
# Type: physicochemical
# particulars: organic solvent or mixture, MeOH
value.kind: solubility (µg/mL)
Numbers only, in µg/mL.

Supply solubility value. Item: CC(=O)c1ccc2c(c1)[C@@H]1C=CC[C@@H]1[C@H](c1cc3c(cc1Br)OCO3)N2 [SRR G-1 Form A]
6000

====

# assay.method.text: Approximate solubility of SRR G-1 Form A in solvents
# Type: physicochemical
# particulars: organic solvent or mixture, THF
value.kind: solubility

Supply solubility value. Item: CC(=O)c1ccc2c(c1)[C@@H]1C=CC[C@@H]1[C@H](c1cc3c(cc1Br)OCO3)N2 [SRR G-1 Form A]
> 67 mg/mL

====

# assay.method.text: Kinetic solubility measurement in bio-relevant media
# Type: physicochemical
# particulars: simulated gastric fluid, thermodynamic from solid; SGF (pH 1.8); 37° C.; 2 h
value.kind: solubility at 2 h (µg/mL)
One number for each entry, in µg/mL.

Supply solubility at 2 h value. Item: CC(=O)c1ccc2c(c1)[C@@H]1C=CC[C@@H]1[C@H](c1cc3c(cc1Br)OCO3)N2 [SRR G-1 Form A]
6.2

====

# assay.method.text: Approximate solubility of SRR G-1 Form A in solvents
# Type: physicochemical
# particulars: organic solvent or mixture, diethyl ether
value.kind: solubility (µg/mL)
One number for each entry, in µg/mL.

Supply solubility value. Item: CC(=O)c1ccc2c(c1)[C@@H]1C=CC[C@@H]1[C@H](c1cc3c(cc1Br)OCO3)N2 [SRR G-1 Form A]
8000

====

# assay.method.text: Solubility measurement in pH buffers
# Type: physicochemical
# particulars: aqueous buffer, thermodynamic from solid; pH 7.0 buffer; 37° C.; 24 hrs; read-out: Solubility
value.kind: solubility at 24 h

Supply solubility at 24 h value. Item: CC(=O)c1ccc2c(c1)[C@@H]1C=CC[C@@H]1[C@H](c1cc3c(cc1Br)OCO3)N2 [SRR G-1 Form A]
< 0.72 µg/mL

====

# measured.on: HTR1A (Homo sapiens)
# Sequence (P08908 whole entry): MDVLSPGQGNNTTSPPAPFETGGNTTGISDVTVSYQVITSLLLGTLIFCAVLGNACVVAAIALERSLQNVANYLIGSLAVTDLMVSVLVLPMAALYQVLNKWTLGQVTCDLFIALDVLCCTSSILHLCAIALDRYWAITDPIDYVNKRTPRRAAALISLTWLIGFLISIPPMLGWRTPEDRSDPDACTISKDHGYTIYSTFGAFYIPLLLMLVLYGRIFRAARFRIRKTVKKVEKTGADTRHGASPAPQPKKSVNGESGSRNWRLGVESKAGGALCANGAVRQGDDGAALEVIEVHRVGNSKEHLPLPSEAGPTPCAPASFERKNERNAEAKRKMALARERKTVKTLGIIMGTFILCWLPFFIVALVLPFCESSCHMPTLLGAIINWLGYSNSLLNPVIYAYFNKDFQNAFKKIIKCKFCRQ
# assay.method.text: Off target selectivity assay, HTR1A
# particulars: dose response, concentrations up to 10 μM; read-out: IC50 or EC50 on HTR1A
value.kind: pIC50
Numbers only, as −log10 of the molar value.

Supply pIC50 value. Item: "CC(=O)c1ccc2c(c1)[C@H]1C=CC[C@H]1[C@@H](c1cc3c(cc1Br)OCO3)N2"
5.68

====

# assay.method.text: Plasma concentration of SRR G-1 in rats after oral dosing (LC-MS/MS)
# Format: in vivo
# particulars: male, rat, plasma, po, 10 mg/kg, time 1.00 h, individual animals (R1-R9), read-out: Plasma Conc.
value.kind: concentration at 1 h (ng/mL)
Give bare numbers, in ng/mL.

Supply concentration at 1 h value. Item: CC(=O)c1ccc2c(c1)[C@@H]1C=CC[C@@H]1[C@H](c1cc3c(cc1Br)OCO3)N2 (single isomer, unassigned)
3.96
